- experimental system: UniProt:P03468
- Sequence (P03468 whole entry): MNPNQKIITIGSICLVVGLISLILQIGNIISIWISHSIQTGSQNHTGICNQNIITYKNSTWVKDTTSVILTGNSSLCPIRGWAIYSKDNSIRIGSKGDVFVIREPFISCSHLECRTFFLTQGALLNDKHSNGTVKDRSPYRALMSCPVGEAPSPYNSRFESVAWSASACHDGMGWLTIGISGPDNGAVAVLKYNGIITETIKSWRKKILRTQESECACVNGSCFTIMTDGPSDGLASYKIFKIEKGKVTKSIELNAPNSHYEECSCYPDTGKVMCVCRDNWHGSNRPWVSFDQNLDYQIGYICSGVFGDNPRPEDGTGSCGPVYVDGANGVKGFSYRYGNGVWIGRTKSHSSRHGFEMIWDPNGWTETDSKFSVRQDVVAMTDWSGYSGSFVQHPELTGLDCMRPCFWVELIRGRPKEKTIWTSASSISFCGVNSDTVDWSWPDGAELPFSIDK
- protocol description: Influenza virus sialidase inhibition (free sialic acid released from α 2-3 sialyl-lactose, pH 5.2, 37° C., densitometry)
- Format: biochemical, Influenza virus A/PR/8/34
- applied conditions: α 2-3 sialyl-lactose substrate, pH 5.2, 37° C., 10 minutes
Counter-ions that a name gives are not always drawn.
Entries and their pIC50 values follow.
Please express pIC50 as -log10 of the molar concentration.

Worked examples follow.
1) CC(=O)N[C@H]1[C@H]([C@H](O)[C@H](O)CO)OC(C(=O)O)=C[C@@H]1N [4-Amino-2,3-didehydrosialic acid, 4-amino-2,3-didehydrosialic acid] : 5.82
2) CC(=O)N[C@H]1[C@H]([C@H](F)[C@H](O)CO)OC(C(=O)O)=C[C@@H]1O [7-Fluoro-2,3-didehydrosialic acid] : 5.54

Now let's try a different one.
(Q) Data request, read-out pIC50, for CC(=O)N[C@H]1[C@H]([C@H](F)[C@H](O)CO)OC(C(=O)O)=C[C@@H]1N [Sodium salt]
(A) 6.30
